Tested on: TK-10
Assay: NCI-60 SRB screen
Type: cell-based, human
Conditions: Homo sapiens; TK-10; single dose 10^−5 M; read-out: Growth inhibition (%)
Assign class by inhibition at 10 µM: not lower than -30% means MET; lower than -30% means NOT MET.

Prompt line: Threshold query (inhibition at 10 µM >= -30%) on O=C1NC(c2cccc([N+](=O)[O-])c2)c2sc3c(F)cccc3c2C1Cl (centres unmarked) [Compound 4d]
Response line: NOT MET

Prompt line: In plain terms: is recorded inhibition at 10 µM at least -30% for COc1ccc(C=C2Sc3c(F)cccc3C2=O)c(OC)c1 [Compound 2a] ?
Response line: NOT MET

Prompt line: Does N#CC1C(=O)NC(c2ccccc2[N+](=O)[O-])c2sc3c(F)cccc3c21 (centres unmarked) [Compound 5c] have a reported inhibition at 10 µM of at least -30%?
Response line: MET

Prompt line: Quick check: does CCN1CCN(C2C(=O)NC(c3cccc([N+](=O)[O-])c3)c3sc4c(F)cccc4c32)CC1 (centres unmarked) [Compound 6a] have inhibition at 10 µM greater than or equal to -30%?
Response line: NOT MET

Prompt line: Kindly determine if inhibition at 10 µM recorded for O=C1NC(c2ccccc2[N+](=O)[O-])c2sc3c(F)cccc3c2C1Cl (centres unmarked) [Compound 4c] is above or exactly -30%.
Response line: NOT MET

* * *

Tested on: BT-549
Assay: NCI-60 SRB screen;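 note: half-maximal inhibitory concentration read as cell viability unlike GI50 net growth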
Assay type: cell-based, human
Conditions: Homo sapiens; BT-549; five dose
endpoint: IC50
Could you write the number and then its unit?

Prompt line: // lookup IC50 for N#CC1C(=O)NC(c2ccccc2[N+](=O)[O-])c2sc3c(F)cccc3c21 (stereo not shown)
Response line: 72.4 µM

* * *

System: NCI/ADR-RES
Assay: NCI-60 SRB screen
Format: cell-based, human
Conditions: Homo sapiens, single dose 10^−5 M, read-out: Growth inhibition (%)
endpoint: inhibition at 10 µM (%)
Write the value in % as a bare number.

Prompt line: // lookup inhibition at 10 µM | system=NCI/ADR-RES | key= O=C1NC(c2ccccc2[N+](=O)[O-])c2sc3c(F)cccc3c2C1Cl (stereo not drawn) [Compound 4c]
Response line: -1.98

Prompt line: Record lookup: for NCI/ADR-RES, what inhibition at 10 µM belongs to N#CC1C(=O)NC(c2cccc([N+](=O)[O-])c2)c2sc3c(F)cccc3c21 (stereo not drawn) [Compound 5d] ?
Response line: 2.18

Prompt line: Hi! What's the reported inhibition at 10 µM for CCN1CCN(C2C(=O)NC(c3cccc([N+](=O)[O-])c3)c3sc4c(F)cccc4c32)CC1 (stereo not drawn) [Compound 6a] on NCI/ADR-RES?
Response line: -2.46

Prompt line: What inhibition at 10 µM appears in the records for this compound with NCI/ADR-RES? O=C1NC(c2cccc([N+](=O)[O-])c2)c2sc3c(F)cccc3c2C1Cl (stereo not drawn) [Compound 4d]
Response line: -8.05

Prompt line: Observed inhibition at 10 µM on NCI/ADR-RES for O=C1NC(c2cccc([N+](=O)[O-])c2)c2sc3c(F)cccc3c2C1N1CCCCC1 (stereo not drawn) [Compound 6c] , please.
Response line: -1.66

Prompt line: Give the reported inhibition at 10 µM for O=C1NC(c2cccc([N+](=O)[O-])c2)c2sc3c(F)cccc3c2C1N1CCOCC1 (stereo not drawn) [Compound 6b] (system: NCI/ADR-RES).
Response line: 1.78

Prompt line: API: value(readout= inhibition at 10 µM, system= NCI/ADR-RES, query= COc1ccc(C2NC(=O)C(C#N)c3c2sc2c(F)cccc32)c(OC)c1 (stereo not drawn) [Compound 5a] )
Response line: 84.4

Prompt line: # value lookup — system NCI/ADR-RES, readout inhibition at 10 µM, item COc1ccc(C2NC(=O)C(C#N)c3c2sc2c(F)cccc32)cc1 (stereo not drawn) [Compound 5b]
Response line: 70.7

Prompt line: Query the reported inhibition at 10 µM for NCI/ADR-RES; item: N#CC1C(=O)NC(c2ccccc2[N+](=O)[O-])c2sc3c(F)cccc3c21 (stereo not drawn) [Compound 5c]
Response line: 31.5

Cited source: paper PMC8330742
